System: 313798-341-R-J2-PDC spheroids, viability
Experiment: Anticancer human tumor 313798-341-R-J2-PDC patient-derived cervical squamous cell carcinoma cell line growth inhibition [PI3K]; active means viability on the fitted dose curve at most 10% of control; inactive means the rest
Details: second compound 1 µM; first compound 10 µM; spheroids with HUVEC and MSC
One label from this list, please: active, inactive

Each compound tested received a call. Report the one for C[C@@H](NC(=O)c1ncnc(N)c1Cl)c1ncc(C(=O)Nc2cc(C(F)(F)F)c(Cl)cn2)s1 + CC(Nc1ncnc2nc[nH]c12)c1cc2cccc(Cl)c2c(=O)n1-c1ccccc1 .
inactive

Each compound tested received a call. Report the one for CCCS(=O)(=O)Nc1ccc(F)c(C(=O)c2c[nH]c3ncc(-c4ccc(Cl)cc4)cc23)c1F + Cc1nc(NC(=O)N2CCCC2C(N)=O)sc1-c1ccnc(C(C)(C)C(F)(F)F)c1 .
active

Each compound tested received a call. Report the one for C#Cc1c(F)ccc2cc(O)cc(-c3ncc4c(N5CC6CCC(C5)N6)nc(OCC56CCCN5CC(F)C6)nc4c3F)c12 (stereo not given) + CC(Nc1ccc2c(c1)OCCn1cc(N3C(=O)OCC3C(F)F)nc1-2)C(N)=O .
inactive

Each compound tested received a call. Report the one for C=CC(=O)N1CCN(c2nc(=O)n(-c3c(C)ccnc3C(C)C)c3nc(-c4c(O)cccc4F)c(F)cc23)C(C)C1 (stereo not given) + Cc1nc(NC(=O)N2CCCC2C(N)=O)sc1-c1ccnc(C(C)(C)C(F)(F)F)c1 .
inactive

Each compound tested received a call. Report the one for CCCS(=O)(=O)Nc1ccc(F)c(C(=O)c2c[nH]c3ncc(-c4ccc(Cl)cc4)cc23)c1F + COc1c(OCCCN2CCOCC2)ccc2c3n(c(=NC(=O)c4cnc(N)nc4)nc12)CCN3 .
inactive

---

Exercise: state measured viability, T/C for each of the compounds provided.
System: 313798-341-R-J2-PDC spheroids, viability
Test: Anticancer human tumor 313798-341-R-J2-PDC cell line growth inhibition [PI3K];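 further: spheroids exposed to compounds for seven days; 100% = DMSO vehicle control viability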
Conditions: second compound 3.16 µM; first compound 3.16 µM; hits give low values; spheroids with HUVEC and MSC

Please supply the value of reported viability, T/C for the item C[C@@H](NC(=O)c1ncnc(N)c1Cl)c1ncc(C(=O)Nc2cc(C(F)(F)F)c(Cl)cn2)s1 + Cc1nc(NC(=O)N2CCCC2C(N)=O)sc1-c1ccnc(C(C)(C)C(F)(F)F)c1
64.9%

Please supply the value of reported viability, T/C for the item CCCS(=O)(=O)Nc1ccc(F)c(C(=O)c2c[nH]c3ncc(-c4ccc(Cl)cc4)cc23)c1F + CC(Nc1ncnc2nc[nH]c12)c1cc2cccc(Cl)c2c(=O)n1-c1ccccc1
90.1%

Please supply the value of reported viability, T/C for the item CC(Cn1ccc(-c2ccc(C#N)c(Cl)c2)n1)NC(=O)c1cc(C(C)O)[nH]n1 (configuration not stated) + CC(Nc1ncnc2nc[nH]c12)c1cc2cccc(Cl)c2c(=O)n1-c1ccccc1
105%

Please supply the value of reported viability, T/C for the item Cn1nccc1Nc1nccc(-c2ccn(C(CO)c3ccc(Cl)c(F)c3)c(=O)c2)n1 (configuration not stated) + CC(Nc1ncnc2nc[nH]c12)c1cc2cccc(Cl)c2c(=O)n1-c1ccccc1
89.9%

Please supply the value of reported viability, T/C for the item CC1(C)CCC(Nc2ncc(C(F)(F)F)c(-c3c[nH]c4c(P(C)(C)=O)c(C#N)ccc34)n2)CN1 (configuration not stated) + Cc1nc(NC(=O)N2CCCC2C(N)=O)sc1-c1ccnc(C(C)(C)C(F)(F)F)c1
26.2%

Please supply the value of reported viability, T/C for the item C=CC(=O)N1CCN(c2nc(=O)n(-c3c(C)ccnc3C(C)C)c3nc(-c4c(O)cccc4F)c(F)cc23)C(C)C1 (configuration not stated) + Cc1nc(NC(=O)N2CCCC2C(N)=O)sc1-c1ccnc(C(C)(C)C(F)(F)F)c1
67.9%

Please supply the value of reported viability, T/C for the item CC(Cn1ccc(-c2ccc(C#N)c(Cl)c2)n1)NC(=O)c1cc(C(C)O)[nH]n1 (configuration not stated) + Cc1nc(NC(=O)N2CCCC2C(N)=O)sc1-c1ccnc(C(C)(C)C(F)(F)F)c1
59.1%

Please supply the value of reported viability, T/C for the item Cn1nccc1Nc1nccc(-c2ccn(C(CO)c3ccc(Cl)c(F)c3)c(=O)c2)n1 (configuration not stated) + Cc1nc(NC(=O)N2CCCC2C(N)=O)sc1-c1ccnc(C(C)(C)C(F)(F)F)c1
52.9%

Please supply the value of reported viability, T/C for the item C#Cc1c(F)ccc2cc(O)cc(-c3ncc4c(N5CC6CCC(C5)N6)nc(OCC56CCCN5CC(F)C6)nc4c3F)c12 (configuration not stated) + Cc1nc(NC(=O)N2CCCC2C(N)=O)sc1-c1ccnc(C(C)(C)C(F)(F)F)c1
54.6%

Please supply the value of reported viability, T/C for the item CCCS(=O)(=O)Nc1ccc(F)c(C(=O)c2c[nH]c3ncc(-c4ccc(Cl)cc4)cc23)c1F + Cc1nc(NC(=O)N2CCCC2C(N)=O)sc1-c1ccnc(C(C)(C)C(F)(F)F)c1
49.8%

Please supply the value of reported viability, T/C for the item C=CC(=O)N1CCN(c2nc(=O)n(-c3c(C)ccnc3C(C)C)c3nc(-c4c(O)cccc4F)c(F)cc23)C(C)C1 (configuration not stated) + CC(Nc1ncnc2nc[nH]c12)c1cc2cccc(Cl)c2c(=O)n1-c1ccccc1
100%

Please supply the value of reported viability, T/C for the item CNC(=O)c1ccc(N2C(=S)N(c3ccc(C#N)c(C(F)(F)F)c3)C(=O)C2(C)C)cc1F + CC(Nc1ncnc2nc[nH]c12)c1cc2cccc(Cl)c2c(=O)n1-c1ccccc1
97.1%

---

Exercise: state measured viability, T/C for each of the compounds provided.
Test system: 313798-341-R-J2-PDC spheroids, viability
Assay: Anticancer human tumor 313798-341-R-J2-PDC cell line growth inhibition [PI3K];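 further: spheroids exposed to compounds for seven days; 100% = DMSO vehicle control viability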
Settings: second compound 0.1 µM; first compound 0.316 µM; hits give low values; spheroids with HUVEC and MSC

Please supply the value of reported viability, T/C for the item CCN1CCN(Cc2ccc(Nc3ncc(F)c(-c4cc(F)c5nc(C)n(C(C)C)c5c4)n3)nc2)CC1 + CC(Nc1ccc2c(c1)OCCn1cc(N3C(=O)OCC3C(F)F)nc1-2)C(N)=O
101%

Please supply the value of reported viability, T/C for the item CCN1CCN(Cc2ccc(Nc3ncc(F)c(-c4cc(F)c5nc(C)n(C(C)C)c5c4)n3)nc2)CC1 + CC(Nc1ncnc2nc[nH]c12)c1cc2cccc(Cl)c2c(=O)n1-c1ccccc1
102%

Please supply the value of reported viability, T/C for the item CC1(C)CCC(CN2CCN(c3ccc(C(=O)NS(=O)(=O)c4ccc(NCC5CCOCC5)c([N+](=O)[O-])c4)c(Oc4cnc5[nH]ccc5c4)c3)CC2)=C(c2ccc(Cl)cc2)C1 + CC(Nc1ncnc2nc[nH]c12)c1cc2cccc(Cl)c2c(=O)n1-c1ccccc1
85.4%

Please supply the value of reported viability, T/C for the item Cn1ncc(Cl)c1-c1cc(C(=O)NC(CN)Cc2cccc(F)c2)sc1Cl (stereo unspecified) + CC(Nc1ncnc2nc[nH]c12)c1cc2cccc(Cl)c2c(=O)n1-c1ccccc1
84.4%

Please supply the value of reported viability, T/C for the item C[C@@H](NC(=O)c1ncnc(N)c1Cl)c1ncc(C(=O)Nc2cc(C(F)(F)F)c(Cl)cn2)s1 + CC(Nc1ccc2c(c1)OCCn1cc(N3C(=O)OCC3C(F)F)nc1-2)C(N)=O
91.8%

Please supply the value of reported viability, T/C for the item CC(Cn1ccc(-c2ccc(C#N)c(Cl)c2)n1)NC(=O)c1cc(C(C)O)[nH]n1 (stereo unspecified) + CC(Nc1ccc2c(c1)OCCn1cc(N3C(=O)OCC3C(F)F)nc1-2)C(N)=O
102%

---

Exercise: state measured viability, T/C for each of the compounds provided.
System: 313798-341-R-J2-PDC spheroids, viability
Assay: Anticancer human tumor 313798-341-R-J2-PDC cell line growth inhibition [PI3K];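 further: spheroids exposed to compounds for seven days; 100% = DMSO vehicle control viability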
Conditions: second compound 0.1 µM; first compound 3.16 µM; hits give low values; spheroids with HUVEC and MSC
Field format: number, assumed %, no unit text.

Please supply the value of reported viability, T/C for the item C=CC(=O)N1CCN(c2nc(=O)n(-c3c(C)ccnc3C(C)C)c3nc(-c4c(O)cccc4F)c(F)cc23)C(C)C1 (stereo not given) + CC(Nc1ncnc2nc[nH]c12)c1cc2cccc(Cl)c2c(=O)n1-c1ccccc1
102

Please supply the value of reported viability, T/C for the item C[C@@H](NC(=O)c1ncnc(N)c1Cl)c1ncc(C(=O)Nc2cc(C(F)(F)F)c(Cl)cn2)s1 + CC(Nc1ccc2c(c1)OCCn1cc(N3C(=O)OCC3C(F)F)nc1-2)C(N)=O
73.3

Please supply the value of reported viability, T/C for the item CC(Cn1ccc(-c2ccc(C#N)c(Cl)c2)n1)NC(=O)c1cc(C(C)O)[nH]n1 (stereo not given) + Cc1nc(NC(=O)N2CCCC2C(N)=O)sc1-c1ccnc(C(C)(C)C(F)(F)F)c1
114

Please supply the value of reported viability, T/C for the item CC1(C)CCC(Nc2ncc(C(F)(F)F)c(-c3c[nH]c4c(P(C)(C)=O)c(C#N)ccc34)n2)CN1 (stereo not given) + CC(Nc1ccc2c(c1)OCCn1cc(N3C(=O)OCC3C(F)F)nc1-2)C(N)=O
30.9

Please supply the value of reported viability, T/C for the item C=CC(=O)N1CCN(c2nc(=O)n(-c3c(C)ccnc3C(C)C)c3nc(-c4c(O)cccc4F)c(F)cc23)C(C)C1 (stereo not given) + Cc1nc(NC(=O)N2CCCC2C(N)=O)sc1-c1ccnc(C(C)(C)C(F)(F)F)c1
94.3
